test system: N2a; test: Neuroprotective activity against OGD/R induced cell injury in mouse N2a cells assessed as cell viability at 10 uM preincubated under hypoxic condition for 2 hrs and measured after 24 hrs (reference value: 28.66 to 30.22 %); type: functional; details: time 26 hrs, read-out: Activity
Reported viability at 10 µM values are given for each entry in this list.
Respond numerically; units are % and should not be typed.

{"compound": "CCCCC(O)c1ccccc1-c1cccs1 (stereo not given)", "experimental target": "N2a", "numeric result": 35.4}
{"compound": "CCCCC(O)c1ccc(Br)cc1-c1nnn(C2CC2)n1 (stereo not given)", "experimental target": "N2a", "numeric result": 50.6}
{"compound": "CCCCC(O)c1ccccc1-c1nnn(C)n1 (stereo not given)", "experimental target": "N2a", "numeric result": 43.9}
{"compound": "CCCCC(O)c1ccccc1-c1cc[nH]n1 (stereo not given)", "experimental target": "N2a", "numeric result": 39.5}
{"compound": "CCCC(O)c1ccccc1-c1nn[nH]n1 (stereo not given)", "experimental target": "N2a", "numeric result": 35.6}
{"compound": "CCCCC(O)c1cc(Br)ccc1-c1nn[nH]n1 (stereo not given)", "experimental target": "N2a", "numeric result": 37.6}
{"compound": "CCCCC(O)c1ccccc1-c1nn[nH]n1 (stereo not given)", "experimental target": "N2a", "numeric result": 40.5}
{"compound": "CCCCC(O)c1ccc(Cl)cc1-c1nn[nH]n1 (stereo not given)", "experimental target": "N2a", "numeric result": 27.5}
{"compound": "CCCCC1OC(=O)c2ccccc21 (stereo not drawn) [RAC-3-N-BUTYLPHTHALIDE]", "experimental target": "N2a", "numeric result": 36.6}

Then there is this compound:
Query :: Please give the measured viability at 10 µM for this compound: CCCCC(O)c1ccc(Br)cc1-c1nnn(CCN(C)C)n1 (stereo not given)
Result :: 44
